system: GBA mutant human fibroblasts GM008760; test: Glucosylceramide lowering assay; format: cell-based; conditions: Homo sapiens, Fibroblast, 96 h; 10 μM test compound, 4 days culture; GlcCer (C16:0)/Cer (C16:0) molar ratio of test compound group relative to DMSO control group x100; smaller value = glucosylceramide lowering
Measurement Label: activity at 10 µM (%)
Field: numeric (%). Do not append units.

Reference set (3 entries):
Cc1cn(-c2ccccc2OCC(F)(F)F)c(=O)c2c(C(=O)N3CCC(Oc4ccc(Cl)cc4)CC3)cnn12 [Example 335]    68
Cc1cn(C)c(=O)c2c(C(=O)N3CC4CC4(c4ccc5ccccc5c4)C3)cn(C)c12 (stereo not shown) [Example 261]    65
Cc1cn(C)c(=O)c2c(C(=O)N[C@H]3CCC[C@H](c4ccccc4)C3)cn(C)c12 (racemic) [Example 114]    58

stdin: State the recorded activity at 10 µM for this entry: COc1ccccc1-n1cc(C)n2ncc(C(=O)Nc3ccc(N4CCOCC4)cc3)c2c1=O [Example 311]
stdout: 54
